Data origin, for the record: patent US11857535B2

- RUN_DESCRIPTION: Compound exposure (PK) in plasma, spleen and tumor of OCI-Ly10 xenograph mice
- Assay type: in vivo, mouse
- PARTICULARS: C.B. 17 SCID, mouse, plasma, 10 mg/kg; 10 mpk PO
METRIC_NAME: half-life (h)
The response must be a number in h with no trailing unit.

Tell me the measured half-life of CC(C)(O)c1cc2nc([C@H]3CC[C@H](CN4CC5(CC(CCNc6cccc7c6C(=O)N(C6CCC(=O)NC6=O)C7=O)C5)C4)CC3)sc2cc1NC(=O)c1cccc(C(F)(F)F)n1 (stereo partly shown) , please.
9.35

----------
- RUN_DESCRIPTION: Human dose prediction by matching AUCs with intermittent dosing regimens in mice models
- PARTICULARS: 30 mg/kg; mouse, DHL2 model, PO 30 mpk BIW; read-out: Weekly AUC
METRIC_NAME: AUC (µM·h)
Write the number in µM·h without appending the unit.

Field request: AUC | item: CC(C)(O)c1cc2nc([C@H]3CC[C@H](CN4CC5(CC(CCNc6cccc7c6C(=O)N(C6CCC(=O)NC6=O)C7=O)C5)C4)CC3)sc2cc1NC(=O)c1cccc(C(F)(F)F)n1 (stereo partly shown)
18

----------
- RUN_DESCRIPTION: Human dose prediction by matching AUCs with intermittent dosing regimens in mice models
- PARTICULARS: 12 mg/kg; mouse, OCI-Ly10 model, IV 12 mpk QW; read-out: Weekly AUC
METRIC_NAME: AUC at 1 week (µM·h)
Supply the numeric figure in µM·h, leaving out any unit text.

AUC at 1 week for CC(C)(O)c1cc2nc([C@H]3CC[C@H](CN4CC5(CC(CCNc6cccc7c6C(=O)N(C6CCC(=O)NC6=O)C7=O)C5)C4)CC3)sc2cc1NC(=O)c1cccc(C(F)(F)F)n1 (stereo partly shown) [Compound A] ?
24

----------
- RUN_DESCRIPTION: Compound exposure (PK) in plasma, spleen and tumor of OCI-Ly10 xenograph mice
- Format: in vivo, mouse
- PARTICULARS: C.B. 17 SCID, mouse, plasma; 30 mpk, after 5d dosing; read-out: Plasma C24 h
- Experimental: At termination: At pre-determined time points based on study design, animals were humanely sacrificed by CO2. Blood was obtained by cardiac puncture for isolation of plasma, any residual tumor was removed and divided in 2 portions, 1 (minimal) for terminal compound exposure and 1 to determine IRAK4 and actin. Compound was determined in tumor and plasma using LC/MS with calibrated standards.
METRIC_NAME: concentration at 24 h (nM)
Number only, in nM; omit the unit.

I have this compound here, CC(C)(O)c1cc2nc([C@H]3CC[C@H](CN4CC5(CC(CCNc6cccc7c6C(=O)N(C6CCC(=O)NC6=O)C7=O)C5)C4)CC3)sc2cc1NC(=O)c1cccc(C(F)(F)F)n1 (stereo partly shown) [Compound A] , and I need its recorded concentration at 24 h.
640

----------
- RUN_DESCRIPTION: Compound exposure (PK) in plasma, spleen and tumor of OCI-Ly10 xenograph mice
- Format: in vivo, mouse
- PARTICULARS: C.B. 17 SCID, mouse, plasma, 10 mg/kg; 10 mpk PO
METRIC_NAME: AUC(0-t)

Query: AUC(0-t); subject: CC(C)(O)c1cc2nc([C@H]3CC[C@H](CN4CC5(CC(CCNc6cccc7c6C(=O)N(C6CCC(=O)NC6=O)C7=O)C5)C4)CC3)sc2cc1NC(=O)c1cccc(C(F)(F)F)n1 (stereo partly shown)
2.83 µM·h

----------
- RUN_DESCRIPTION: Compound exposure (PK) in plasma, spleen and tumor of OCI-Ly10 xenograph mice
- Type: in vivo, mouse
- PARTICULARS: C.B. 17 SCID, mouse, plasma, 10 mg/kg; 10 mpk PO
METRIC_NAME: Cmax (µM)
Write the value in µM as a bare number.

# query: Cmax of entry CC(C)(O)c1cc2nc([C@H]3CC[C@H](CN4CC5(CC(CCNc6cccc7c6C(=O)N(C6CCC(=O)NC6=O)C7=O)C5)C4)CC3)sc2cc1NC(=O)c1cccc(C(F)(F)F)n1 (stereo partly shown)
0.18

----------
- RUN_DESCRIPTION: Human dose prediction by matching AUCs with intermittent dosing regimens in mice models
- PARTICULARS: 3 mg/kg; mouse, OCI-Ly10 model, IV 3 mpk BIW; read-out: Weekly AUC
METRIC_NAME: AUC

Would you mind telling me what AUC value was observed for CC(C)(O)c1cc2nc([C@H]3CC[C@H](CN4CC5(CC(CCNc6cccc7c6C(=O)N(C6CCC(=O)NC6=O)C7=O)C5)C4)CC3)sc2cc1NC(=O)c1cccc(C(F)(F)F)n1 (stereo partly shown) ?
12 µM·h

----------
- RUN_DESCRIPTION: Compound exposure (PK) in plasma, spleen and tumor of OCI-Ly10 xenograph mice
- Assay type: in vivo, mouse
- PARTICULARS: C.B. 17 SCID, mouse, plasma; based on either a 3 mpk or 10 mpk dose; read-out: Target exposure for efficacy in OCI-Ly10: steady state C24h
METRIC_NAME: concentration at 24 h

Consider the compound CC(C)(O)c1cc2nc([C@H]3CC[C@H](CN4CC5(CC(CCNc6cccc7c6C(=O)N(C6CCC(=O)NC6=O)C7=O)C5)C4)CC3)sc2cc1NC(=O)c1cccc(C(F)(F)F)n1 (stereo partly shown) and give its measured concentration at 24 h.
10 to 80 nM

----------
- RUN_DESCRIPTION: 7.3 Pharmacokinetic characterization, single or repeated oral administration, cynomolgus monkeys
- PARTICULARS: cynomolgus monkey, in vivo, PO dosing in NHP, schedule D1, D4, read-out: Target exposure Range (Ly10-DHL2) AUC0-168
METRIC_NAME: Target AUC0-168 exposure range

So what's the measured Target AUC0-168 exposure range for this one? CC(C)(O)c1cc2nc([C@H]3CC[C@H](CN4CC5(CC(CCNc6cccc7c6C(=O)N(C6CCC(=O)NC6=O)C7=O)C5)C4)CC3)sc2cc1NC(=O)c1cccc(C(F)(F)F)n1 (stereo partly shown) [Compound A]
7 to 18 µM·h

----------
- RUN_DESCRIPTION: Human dose prediction by matching AUCs with intermittent dosing regimens in mice models
- PARTICULARS: 10 mg/kg; mouse, OCI-Ly10 model, PO 10 mpk BIW; read-out: Weekly AUC
METRIC_NAME: AUC (µM·h)
Give the value in µM·h but do not write µM·h after it.

Which AUC value belongs to CC(C)(O)c1cc2nc([C@H]3CC[C@H](CN4CC5(CC(CCNc6cccc7c6C(=O)N(C6CCC(=O)NC6=O)C7=O)C5)C4)CC3)sc2cc1NC(=O)c1cccc(C(F)(F)F)n1 (stereo partly shown) [Compound A] ?
7

----------
- RUN_DESCRIPTION: 7.3 Pharmacokinetic characterization, single or repeated oral administration, cynomolgus monkeys
- PARTICULARS: cynomolgus monkey, in vivo, PO dosing in NHP, schedule D1, read-out: Target exposure Range (Ly10-DHL2) AUC0-168
METRIC_NAME: Target AUC0-168 exposure range

So what does the record say about Target AUC0-168 exposure range for CC(C)(O)c1cc2nc([C@H]3CC[C@H](CN4CC5(CC(CCNc6cccc7c6C(=O)N(C6CCC(=O)NC6=O)C7=O)C5)C4)CC3)sc2cc1NC(=O)c1cccc(C(F)(F)F)n1 (stereo partly shown) [Compound A] ?
18 to 54 µM·h

----------
- RUN_DESCRIPTION: 7.2 Pharmacokinetic and tolerability characterization, intravenous bolus, cynomolgus monkeys
- PARTICULARS: cynomolgus monkey, in vivo, IV dosing in NHP, schedule D1, read-out: Target exposure Range (Ly10-DHL2) AUC0-168
METRIC_NAME: target exposure range AUC0-168

So what does the record say about target exposure range AUC0-168 for CC(C)(O)c1cc2nc([C@H]3CC[C@H](CN4CC5(CC(CCNc6cccc7c6C(=O)N(C6CCC(=O)NC6=O)C7=O)C5)C4)CC3)sc2cc1NC(=O)c1cccc(C(F)(F)F)n1 (stereo partly shown) ?
24 to 72 µM·h

----------
- RUN_DESCRIPTION: Compound exposure (PK) in plasma, spleen and tumor of OCI-Ly10 xenograph mice
- Type: in vivo, mouse
- PARTICULARS: C.B. 17 SCID, mouse, plasma; 10 mpk, after 5d dosing; read-out: Plasma C24 h
METRIC_NAME: concentration at 24 h (nM)
Kindly provide the numeric value in nM only, without the unit symbol.

Look at this compound and give its reported concentration at 24 h. CC(C)(O)c1cc2nc([C@H]3CC[C@H](CN4CC5(CC(CCNc6cccc7c6C(=O)N(C6CCC(=O)NC6=O)C7=O)C5)C4)CC3)sc2cc1NC(=O)c1cccc(C(F)(F)F)n1 (stereo partly shown) [Compound A]
80

----------
- RUN_DESCRIPTION: Human dose prediction by matching AUCs with intermittent dosing regimens in mice models
- PARTICULARS: 30 mg/kg; mouse, OCI-Ly10 model, PO 30 mpk QW; read-out: Weekly AUC
- Protocol: Human dose predictions from intermittent dosing supports dose targets for both IV and PO dosing. IV formulation up to 300 mg/dose is feasible (exposure for efficacy is 100-300 mg/dose). Dosing to ≥400 mg likely possible (>80% POS based on initial formulation assessment). Projected PO upper dose of 900 mg/day is feasible. May be divided into BID dosing to achieve exposure. High pill burden or unusual formulation strategy (e.g., mix and drink) may be needed. PO versus IV dosing in compared in Table 14.
METRIC_NAME: AUC at 1 week (µM·h)
The reply should contain only the number, in µM·h.

Endpoint output: AUC at 1 week of CC(C)(O)c1cc2nc([C@H]3CC[C@H](CN4CC5(CC(CCNc6cccc7c6C(=O)N(C6CCC(=O)NC6=O)C7=O)C5)C4)CC3)sc2cc1NC(=O)c1cccc(C(F)(F)F)n1 (stereo partly shown) [Compound A] . Value?
18
